B1: CPEB3 Ribozyme (parent)
chain: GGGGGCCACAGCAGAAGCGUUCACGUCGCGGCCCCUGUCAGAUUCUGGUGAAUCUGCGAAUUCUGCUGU

variants of: B1; assay: self-cleavage, relative activity (ratio to wild type); higher = more cleavage; co-transcriptional
Classify as follows. Reported self-cleavage greater than or equal to 0.6: condition met. Reported self-cleavage below: condition not met.

Task: Is self-cleavage for C33G G41U at or above 0.6?
Result: condition not met

Task: Is self-cleavage for G4C C39A at or above 0.6?
Result: condition not met

Task: Is self-cleavage for U44C C63G at or above 0.6?
Result: condition not met
